assayedTarget: Protein deacetylase HDAC6 (Homo sapiens)
procedureSummary: Inhibition of human HDAC-6 using RHKK(Ac) as substrate
readoutName: IC50 (nM)
Please state the figure in nM; there is no need to write the unit.

Query CC(C)c1cc(C(=O)N2CCc3onc(C(=O)NCCCCCCC(=O)NO)c3C2)c(O)cc1O yields IC50 of 4.1

###

assayedTarget: UniProtKB Q9UQL6
readoutName: pIC50
Scale: negative log10 of molar concentration, which is what pIC50 denotes.

The reported pIC50 value, UniProtKB Q9UQL6, for CC(C)c1cc(C(=O)N2CCc3onc(C(=O)NCCCCCCC(=O)NO)c3C2)c(O)cc1O reads 5.80

###

assayedTarget: Histone deacetylase 8 (Homo sapiens)
Sequence (Q9BY41 whole entry): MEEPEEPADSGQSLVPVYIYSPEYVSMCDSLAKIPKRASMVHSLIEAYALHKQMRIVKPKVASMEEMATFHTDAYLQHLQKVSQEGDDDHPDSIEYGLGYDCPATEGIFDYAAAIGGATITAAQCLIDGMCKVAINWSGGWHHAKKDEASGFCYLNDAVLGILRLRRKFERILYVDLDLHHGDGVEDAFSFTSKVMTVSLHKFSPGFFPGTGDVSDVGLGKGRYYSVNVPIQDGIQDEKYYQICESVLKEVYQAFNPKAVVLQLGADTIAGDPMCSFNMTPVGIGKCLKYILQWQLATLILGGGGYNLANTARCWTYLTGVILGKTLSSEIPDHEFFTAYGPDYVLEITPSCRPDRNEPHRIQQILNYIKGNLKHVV
readoutName: pIC50
Scale: negative log10 of molar concentration, which is what pIC50 denotes.

Query CC(C)c1cc(C(=O)N2CCc3onc(C(=O)NCCCCCCC(=O)NO)c3C2)c(O)cc1O yields pIC50 of 5.75

###

assayedTarget: UniProt Q92769
readoutName: IC50 (µM)
Please state the figure in µM; there is no need to write the unit.

The reported IC50 value, UniProt Q92769, for CC(C)c1cc(C(=O)N2CCc3onc(C(=O)NCCCCCCC(=O)NO)c3C2)c(O)cc1O reads 9.49

###

Target chain: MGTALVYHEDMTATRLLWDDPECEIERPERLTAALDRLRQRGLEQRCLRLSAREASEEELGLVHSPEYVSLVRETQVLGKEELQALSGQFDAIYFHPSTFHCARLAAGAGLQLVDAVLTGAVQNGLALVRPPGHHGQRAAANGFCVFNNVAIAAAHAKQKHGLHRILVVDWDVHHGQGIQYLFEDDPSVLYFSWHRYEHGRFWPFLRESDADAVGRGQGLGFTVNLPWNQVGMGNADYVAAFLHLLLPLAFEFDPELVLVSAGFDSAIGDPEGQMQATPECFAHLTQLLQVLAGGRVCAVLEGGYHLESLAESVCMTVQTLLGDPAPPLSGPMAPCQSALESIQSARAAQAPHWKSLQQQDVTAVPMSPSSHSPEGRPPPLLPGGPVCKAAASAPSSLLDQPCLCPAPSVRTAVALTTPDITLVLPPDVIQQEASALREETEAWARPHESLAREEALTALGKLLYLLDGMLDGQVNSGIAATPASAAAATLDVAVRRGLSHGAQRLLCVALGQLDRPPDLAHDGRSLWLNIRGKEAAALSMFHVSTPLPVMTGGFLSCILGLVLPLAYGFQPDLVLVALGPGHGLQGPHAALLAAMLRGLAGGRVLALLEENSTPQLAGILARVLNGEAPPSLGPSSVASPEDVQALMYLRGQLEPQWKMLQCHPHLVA
readoutName: pIC50
Scale: negative log10 of molar concentration, which is what pIC50 denotes.

Query CC(C)c1cc(C(=O)N2CCc3onc(C(=O)NCCCCCCC(=O)NO)c3C2)c(O)cc1O yields pIC50 of 6.05

###

assayedTarget: Histone deacetylase 4 (Homo sapiens)
Sequence (P56524 whole entry): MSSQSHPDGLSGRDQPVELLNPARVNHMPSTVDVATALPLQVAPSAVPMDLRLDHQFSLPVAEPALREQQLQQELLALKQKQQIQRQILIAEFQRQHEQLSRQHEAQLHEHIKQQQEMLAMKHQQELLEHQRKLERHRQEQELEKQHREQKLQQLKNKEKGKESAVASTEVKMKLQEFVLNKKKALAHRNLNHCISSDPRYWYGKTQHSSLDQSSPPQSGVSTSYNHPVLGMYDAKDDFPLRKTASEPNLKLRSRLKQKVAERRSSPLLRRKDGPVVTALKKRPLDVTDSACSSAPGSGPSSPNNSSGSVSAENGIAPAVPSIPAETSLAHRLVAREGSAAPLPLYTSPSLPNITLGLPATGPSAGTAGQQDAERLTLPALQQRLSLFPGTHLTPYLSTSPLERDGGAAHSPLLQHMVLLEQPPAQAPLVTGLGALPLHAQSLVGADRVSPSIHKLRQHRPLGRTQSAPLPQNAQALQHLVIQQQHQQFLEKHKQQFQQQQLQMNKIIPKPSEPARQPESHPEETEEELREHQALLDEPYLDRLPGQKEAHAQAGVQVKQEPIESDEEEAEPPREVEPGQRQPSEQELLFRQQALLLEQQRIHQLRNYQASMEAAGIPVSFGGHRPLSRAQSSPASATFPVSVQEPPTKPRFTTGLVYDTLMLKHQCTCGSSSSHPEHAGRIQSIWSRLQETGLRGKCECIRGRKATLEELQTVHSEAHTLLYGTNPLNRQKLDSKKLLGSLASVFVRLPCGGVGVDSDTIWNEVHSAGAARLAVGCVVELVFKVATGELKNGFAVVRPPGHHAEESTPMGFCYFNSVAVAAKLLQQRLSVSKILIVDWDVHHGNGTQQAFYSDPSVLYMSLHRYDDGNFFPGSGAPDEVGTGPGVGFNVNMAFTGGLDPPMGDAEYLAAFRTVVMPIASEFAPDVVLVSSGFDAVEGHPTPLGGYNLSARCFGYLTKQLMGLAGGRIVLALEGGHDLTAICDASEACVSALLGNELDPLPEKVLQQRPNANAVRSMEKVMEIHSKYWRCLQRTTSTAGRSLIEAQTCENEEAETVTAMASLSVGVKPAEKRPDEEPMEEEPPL
readoutName: pIC50
Scale: negative log10 of molar concentration, which is what pIC50 denotes.

Query CC(C)c1cc(C(=O)N2CCc3onc(C(=O)NCCCCCCC(=O)NO)c3C2)c(O)cc1O yields pIC50 of 4.12

###

assayedTarget: Histone deacetylase 3/Nuclear receptor corepressor 2 (HDAC3/NCoR2) (Homo sapiens, UniProt O15379)
Sequence (O15379 whole entry): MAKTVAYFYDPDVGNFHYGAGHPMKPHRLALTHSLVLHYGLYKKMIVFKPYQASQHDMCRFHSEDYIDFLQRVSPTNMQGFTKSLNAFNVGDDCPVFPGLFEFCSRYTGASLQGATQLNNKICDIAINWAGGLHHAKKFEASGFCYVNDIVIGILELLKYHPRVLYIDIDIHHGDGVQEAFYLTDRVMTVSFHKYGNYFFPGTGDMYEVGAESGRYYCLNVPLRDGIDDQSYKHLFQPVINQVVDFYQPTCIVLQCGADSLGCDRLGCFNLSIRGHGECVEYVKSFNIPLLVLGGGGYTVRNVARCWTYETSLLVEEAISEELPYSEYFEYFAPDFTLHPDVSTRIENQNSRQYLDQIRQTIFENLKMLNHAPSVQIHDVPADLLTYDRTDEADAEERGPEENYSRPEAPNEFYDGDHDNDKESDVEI
Sequence (Q9Y618 whole entry, further chain): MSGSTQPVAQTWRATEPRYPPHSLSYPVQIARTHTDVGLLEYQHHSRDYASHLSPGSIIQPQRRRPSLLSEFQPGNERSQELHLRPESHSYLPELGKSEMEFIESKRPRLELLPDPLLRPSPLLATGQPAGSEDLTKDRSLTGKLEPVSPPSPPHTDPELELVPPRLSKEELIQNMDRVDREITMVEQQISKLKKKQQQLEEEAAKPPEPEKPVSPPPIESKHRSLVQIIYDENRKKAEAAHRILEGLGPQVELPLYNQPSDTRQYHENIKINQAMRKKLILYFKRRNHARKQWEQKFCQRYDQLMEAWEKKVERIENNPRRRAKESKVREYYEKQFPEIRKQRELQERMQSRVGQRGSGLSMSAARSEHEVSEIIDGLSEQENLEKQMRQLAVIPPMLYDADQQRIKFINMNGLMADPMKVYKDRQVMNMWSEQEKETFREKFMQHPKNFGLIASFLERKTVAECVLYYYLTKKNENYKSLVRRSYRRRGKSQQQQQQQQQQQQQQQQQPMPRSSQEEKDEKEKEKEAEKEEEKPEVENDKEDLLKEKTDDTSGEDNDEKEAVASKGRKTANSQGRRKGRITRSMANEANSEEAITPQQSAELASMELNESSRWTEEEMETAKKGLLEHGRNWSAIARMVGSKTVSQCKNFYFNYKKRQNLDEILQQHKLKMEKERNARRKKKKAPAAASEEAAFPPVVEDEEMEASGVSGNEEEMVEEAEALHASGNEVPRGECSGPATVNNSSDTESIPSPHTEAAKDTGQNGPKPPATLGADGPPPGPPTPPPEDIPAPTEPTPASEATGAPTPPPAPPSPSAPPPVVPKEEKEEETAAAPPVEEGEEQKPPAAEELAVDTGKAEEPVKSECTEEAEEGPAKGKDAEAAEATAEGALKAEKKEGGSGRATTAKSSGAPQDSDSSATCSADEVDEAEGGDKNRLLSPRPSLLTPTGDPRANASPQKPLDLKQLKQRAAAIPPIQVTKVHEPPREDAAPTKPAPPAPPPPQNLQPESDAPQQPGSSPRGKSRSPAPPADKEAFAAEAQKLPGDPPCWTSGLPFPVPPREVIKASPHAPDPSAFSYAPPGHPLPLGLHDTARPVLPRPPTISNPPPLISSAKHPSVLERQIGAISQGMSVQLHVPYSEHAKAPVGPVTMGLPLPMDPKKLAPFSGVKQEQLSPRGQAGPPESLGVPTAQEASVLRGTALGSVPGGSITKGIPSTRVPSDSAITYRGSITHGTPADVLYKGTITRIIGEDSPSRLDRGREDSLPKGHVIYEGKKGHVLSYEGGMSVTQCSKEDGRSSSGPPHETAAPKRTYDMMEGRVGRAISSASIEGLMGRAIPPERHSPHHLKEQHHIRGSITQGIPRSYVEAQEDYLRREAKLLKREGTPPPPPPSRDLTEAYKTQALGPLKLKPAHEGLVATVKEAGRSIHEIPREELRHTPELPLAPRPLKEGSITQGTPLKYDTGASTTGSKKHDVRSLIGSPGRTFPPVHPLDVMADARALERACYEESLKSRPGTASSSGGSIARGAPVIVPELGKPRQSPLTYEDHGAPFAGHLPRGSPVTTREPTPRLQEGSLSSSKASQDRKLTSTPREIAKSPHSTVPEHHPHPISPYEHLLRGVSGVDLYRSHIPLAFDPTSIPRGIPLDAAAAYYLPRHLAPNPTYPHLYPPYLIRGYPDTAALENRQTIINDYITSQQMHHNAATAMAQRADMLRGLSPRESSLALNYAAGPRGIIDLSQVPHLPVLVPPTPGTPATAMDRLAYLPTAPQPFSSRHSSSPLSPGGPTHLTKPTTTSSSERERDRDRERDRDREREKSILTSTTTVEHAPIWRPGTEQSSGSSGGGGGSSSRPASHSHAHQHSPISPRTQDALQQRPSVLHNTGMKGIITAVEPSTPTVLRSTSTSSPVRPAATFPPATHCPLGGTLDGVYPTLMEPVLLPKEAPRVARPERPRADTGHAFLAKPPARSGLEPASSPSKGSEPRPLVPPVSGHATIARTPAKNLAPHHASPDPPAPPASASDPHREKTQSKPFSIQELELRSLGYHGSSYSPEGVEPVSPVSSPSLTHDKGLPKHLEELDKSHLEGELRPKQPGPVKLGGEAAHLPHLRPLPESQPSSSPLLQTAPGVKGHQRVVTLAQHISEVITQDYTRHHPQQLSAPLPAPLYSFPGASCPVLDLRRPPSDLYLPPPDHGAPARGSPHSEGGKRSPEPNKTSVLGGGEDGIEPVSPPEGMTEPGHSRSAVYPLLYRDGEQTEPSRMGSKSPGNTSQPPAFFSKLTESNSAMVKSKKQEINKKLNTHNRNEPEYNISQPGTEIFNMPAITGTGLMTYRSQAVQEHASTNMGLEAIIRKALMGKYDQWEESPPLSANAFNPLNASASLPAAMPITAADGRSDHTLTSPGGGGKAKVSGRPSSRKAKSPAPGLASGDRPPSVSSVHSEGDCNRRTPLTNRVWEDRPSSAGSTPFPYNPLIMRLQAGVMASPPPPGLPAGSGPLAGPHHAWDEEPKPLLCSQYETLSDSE
procedureSummary: Inhibition of human HDAC-3/NCOR-2 using RHKK(Ac) as substrate
readoutName: IC50
Put your answer as a value accompanied by its unit after it.

Query CC(C)c1cc(C(=O)N2CCc3onc(C(=O)NCCCCCCC(=O)NO)c3C2)c(O)cc1O yields IC50 of 4.23 µM

###

assayedTarget: UniProt Q8WUI4
Sequence (Q8WUI4 whole entry): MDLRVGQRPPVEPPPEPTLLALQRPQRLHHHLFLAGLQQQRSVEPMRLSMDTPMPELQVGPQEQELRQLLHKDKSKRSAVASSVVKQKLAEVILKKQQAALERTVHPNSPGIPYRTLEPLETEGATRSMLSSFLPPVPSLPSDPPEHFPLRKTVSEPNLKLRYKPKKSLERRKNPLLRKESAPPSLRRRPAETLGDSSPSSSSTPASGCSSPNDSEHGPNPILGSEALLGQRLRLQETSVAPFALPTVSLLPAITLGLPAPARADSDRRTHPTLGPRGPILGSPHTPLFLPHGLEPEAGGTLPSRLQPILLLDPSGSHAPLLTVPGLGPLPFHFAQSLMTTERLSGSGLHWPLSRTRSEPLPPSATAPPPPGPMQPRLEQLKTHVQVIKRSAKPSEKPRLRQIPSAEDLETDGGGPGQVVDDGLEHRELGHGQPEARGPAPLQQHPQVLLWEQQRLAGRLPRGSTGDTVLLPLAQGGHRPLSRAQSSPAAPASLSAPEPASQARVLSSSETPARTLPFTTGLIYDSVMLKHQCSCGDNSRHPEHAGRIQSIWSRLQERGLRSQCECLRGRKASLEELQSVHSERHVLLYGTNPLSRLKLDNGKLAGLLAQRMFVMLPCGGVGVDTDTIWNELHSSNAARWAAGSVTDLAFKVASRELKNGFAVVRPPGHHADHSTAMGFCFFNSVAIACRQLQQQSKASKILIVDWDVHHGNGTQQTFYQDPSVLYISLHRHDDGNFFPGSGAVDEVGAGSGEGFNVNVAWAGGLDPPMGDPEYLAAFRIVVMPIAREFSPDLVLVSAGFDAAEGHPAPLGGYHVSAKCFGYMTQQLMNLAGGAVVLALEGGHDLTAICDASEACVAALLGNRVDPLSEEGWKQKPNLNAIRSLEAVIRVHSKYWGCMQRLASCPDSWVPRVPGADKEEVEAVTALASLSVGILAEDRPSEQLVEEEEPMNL
readoutName: pIC50
Scale: negative log10 of molar concentration, which is what pIC50 denotes.

Query CC(C)c1cc(C(=O)N2CCc3onc(C(=O)NCCCCCCC(=O)NO)c3C2)c(O)cc1O yields pIC50 of 5.60

###

The next entries give measured pIC50 for UniProtKB P07900.
Scale: negative log10 of molar concentration, which is what pIC50 denotes.

Study these solved cases before continuing.
CCOC(=O)c1noc2c1CN(C(=O)c1cc(Cl)c(O)cc1O)CC2; 6.80
CC(C)c1cc(C(=O)N2CCc3onc(C(=O)NCCN4CCOCC4)c3C2)c(O)cc1O; 7.27
CC(C)c1cc(C(=O)N2CCc3onc(C(=O)NC4CCCC4)c3C2)c(O)cc1O; 7.17
CC(C)c1cc(C(=O)N2CCc3onc(C(=O)NCCCCCCC(=O)NO)c3C2)c(O)cc1O; 7.48
CC(C)c1cc(C(=O)N2CCc3onc(C(=O)NCCCl)c3C2)c(O)cc1O; 7.47
CCNC(=O)c1noc2c1CN(C(=O)c1cc(Cl)c(O)cc1O)CC2; 6.96
CCNC(=O)c1noc2c1CN(Cc1cc(Cl)c(O)cc1O)CC2; 5.85
CCNC(=O)c1noc2c1CN(C(=O)c1cc(C(C)C)c(O)cc1O)CC2; 7.54

The reported pIC50 value, UniProtKB P07900, for CCOC(=O)c1noc2c1CN(C(=O)c1ccc(O)cc1O)CC2 reads 5.41

The reported pIC50 value, UniProtKB P07900, for CCOC(=O)c1noc2c1CN(C(=O)c1cc(C(C)C)c(O)cc1O)CC2 reads 7.00

The reported pIC50 value, UniProtKB P07900, for CCNC(=O)c1noc2c1CN(C(=O)c1ccc(O)cc1O)CC2 reads 5.92

###

assayedTarget: Histone deacetylase 11 (Homo sapiens)
Sequence (Q96DB2 whole entry): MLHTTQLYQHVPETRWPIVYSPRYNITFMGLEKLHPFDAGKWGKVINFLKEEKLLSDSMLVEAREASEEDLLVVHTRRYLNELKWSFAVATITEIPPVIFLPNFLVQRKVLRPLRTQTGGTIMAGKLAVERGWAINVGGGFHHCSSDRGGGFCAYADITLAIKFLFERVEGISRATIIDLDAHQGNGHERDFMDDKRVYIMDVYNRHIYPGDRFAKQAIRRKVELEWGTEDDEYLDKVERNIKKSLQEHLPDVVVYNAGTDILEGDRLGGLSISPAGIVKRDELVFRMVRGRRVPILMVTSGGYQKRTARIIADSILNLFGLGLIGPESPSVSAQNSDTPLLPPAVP
readoutName: IC50 (nM)
Please state the figure in nM; there is no need to write the unit.

Query CC(C)c1cc(C(=O)N2CCc3onc(C(=O)NCCCCCCC(=O)NO)c3C2)c(O)cc1O yields IC50 of 521

###

assayedTarget: UniProtKB Q13547
Sequence (Q13547 whole entry): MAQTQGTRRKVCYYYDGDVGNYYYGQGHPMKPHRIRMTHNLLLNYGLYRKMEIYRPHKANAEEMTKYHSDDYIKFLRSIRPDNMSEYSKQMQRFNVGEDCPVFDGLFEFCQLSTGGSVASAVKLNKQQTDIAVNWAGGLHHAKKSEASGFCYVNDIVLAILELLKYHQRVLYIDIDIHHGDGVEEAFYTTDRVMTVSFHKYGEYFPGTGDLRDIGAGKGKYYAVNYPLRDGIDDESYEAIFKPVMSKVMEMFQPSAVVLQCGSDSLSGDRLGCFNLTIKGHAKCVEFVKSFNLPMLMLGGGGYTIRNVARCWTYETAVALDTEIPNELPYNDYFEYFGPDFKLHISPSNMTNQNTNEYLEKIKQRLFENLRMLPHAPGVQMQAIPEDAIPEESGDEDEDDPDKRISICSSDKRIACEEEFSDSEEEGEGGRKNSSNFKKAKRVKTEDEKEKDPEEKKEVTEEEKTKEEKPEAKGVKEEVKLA
procedureSummary: Inhibition of human HDAC-1 using RHKK(Ac) as substrate
readoutName: pIC50
Scale: negative log10 of molar concentration, which is what pIC50 denotes.

The reported pIC50 value, UniProtKB Q13547, for CC(C)c1cc(C(=O)N2CCc3onc(C(=O)NCCCCCCC(=O)NO)c3C2)c(O)cc1O reads 5.69
